Cited source: patent US20210079083A1

assayed_system: T1, Human Angiopoietin-2 full-length (hAng2) (human, UniProt O15123 19-496)
T1 construct: The cell assays used full-length hAng2 from R&D Systems; also called human Ang2; A2
T1 sequence: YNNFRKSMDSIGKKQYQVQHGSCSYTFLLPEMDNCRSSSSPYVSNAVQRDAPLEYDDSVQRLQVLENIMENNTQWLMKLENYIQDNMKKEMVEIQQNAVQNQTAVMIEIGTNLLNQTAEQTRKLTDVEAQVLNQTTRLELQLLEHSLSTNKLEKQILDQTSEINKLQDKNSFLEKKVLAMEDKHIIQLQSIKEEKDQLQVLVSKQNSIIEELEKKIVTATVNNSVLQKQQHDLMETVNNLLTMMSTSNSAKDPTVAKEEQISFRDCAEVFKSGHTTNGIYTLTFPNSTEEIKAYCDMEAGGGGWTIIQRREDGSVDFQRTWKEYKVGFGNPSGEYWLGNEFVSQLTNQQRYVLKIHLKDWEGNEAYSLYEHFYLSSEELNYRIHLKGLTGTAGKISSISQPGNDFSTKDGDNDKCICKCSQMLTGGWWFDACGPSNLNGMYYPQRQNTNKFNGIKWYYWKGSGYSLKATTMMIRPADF
experimental_protocol: BLI (Octet), antibody fixed on AR2G sensor, hAng2 3.125-50 nM in solution, 1:1 global fit
The binders listed here are annotated with their Kd.
Write the number in nM without appending the unit.

These solved cases illustrate the format of a correct answer.
>  <binder>
humanized anti-Ang2 antibody 2C8H12 (antibody, V domains shown, Full-length human IgG1) VH: QVQLVQSGAEVKKPGASVKVSCKASGYTFTSYWMHWVRQAPGQGLEWMGMIDPSDSETRLNQKFKDRVTMTRDTSTSTVYMELSSLRSEDTAVYYCARRFYYGSDWYFDVWGQGTLVTVSS VL: DIQLTQSPSFLSASVGDRVSITCKASQDVGTAVAWYQQKPGKAPKLLIYWASTRHTGVPDRFSGSGSGTEFTLTISSLQPEDFATYYCQQYSSYPLTFGQGTKVEIK

>  <unit_descriptor>
nM

>  <value_measured>
0.139

$$$$
>  <binder>
humanized anti-Ang2 antibody 2C8H11 (antibody, V domains shown, Full-length human IgG1) VH: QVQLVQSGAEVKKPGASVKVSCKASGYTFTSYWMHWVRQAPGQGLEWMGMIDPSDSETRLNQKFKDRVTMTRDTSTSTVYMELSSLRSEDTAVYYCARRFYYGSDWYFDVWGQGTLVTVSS VL: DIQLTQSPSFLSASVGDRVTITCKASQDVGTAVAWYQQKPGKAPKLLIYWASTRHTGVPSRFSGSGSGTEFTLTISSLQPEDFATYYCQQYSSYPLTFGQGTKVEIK

>  <unit_descriptor>
nM

>  <value_measured>
0.212

$$$$
>  <binder>
humanized anti-Ang2 antibody 4B9H11 (antibody, V domains shown, Full-length human IgG1) VH: QVQLVESGGGLVKPGGSLRLSCAASGFTFSDYYMYWIRQAPGKGLEWVSTISVGGSFTYYPDSVKGRFTISRDNAKNSLYLQMNSLRAEDTAVYYCARDWGLRPWFVYWGQGTLVTVSS VL: DIQMTQSPSSLSASVGDRVTITCKASQDVSTAVAWYQQKPGKAPKLLIYWASTRHTGVPSRFSGSGSGTDFTLTISSLQPEDFATYYCQQHYSTPPTFGQGTKVEIK

>  <unit_descriptor>
nM

>  <value_measured>
0.0171

$$$$
>  <binder>
humanized anti-Ang2 antibody 2C8H52 (antibody, V domains shown, Full-length human IgG1) VH: QVQLVQSGAEVKKPGASVKVSCKASGYSFTSYWMHWVKQAPGQGLEWIGMIDPSDSETRLNQKFKDKASLTVDTSTSTVYMELSSLRSEDTAVYYCARRFYYGSDWYFDVWGQGTLVTVSS VL: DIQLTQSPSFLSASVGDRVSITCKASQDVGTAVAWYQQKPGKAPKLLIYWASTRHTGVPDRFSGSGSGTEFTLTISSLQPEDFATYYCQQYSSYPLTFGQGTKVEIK

>  <unit_descriptor>
nM

>  <value_measured>
0.243

$$$$
>  <binder>
humanized anti-Ang2 antibody 2C8H41 (antibody, V domains shown, Full-length human IgG1) VH: QVQLVQSGAEVKKPGASVKVSCKASGYSFTSYWMHWVKQAPGQGLEWIGMIDPSDSETRLNQKFKDKASMTRDTSTSTVYMELSSLRSEDTAVYYCARRFYYGSDWYFDVWGQGTLVTVSS VL: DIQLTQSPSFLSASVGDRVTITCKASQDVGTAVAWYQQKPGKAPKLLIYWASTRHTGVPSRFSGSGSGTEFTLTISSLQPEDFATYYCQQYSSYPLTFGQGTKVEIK

>  <unit_descriptor>
nM

>  <value_measured>
0.249

$$$$

// sample humanized anti-Ang2 antibody 2C8H43 (antibody, V domains shown, Full-length human IgG1) VH: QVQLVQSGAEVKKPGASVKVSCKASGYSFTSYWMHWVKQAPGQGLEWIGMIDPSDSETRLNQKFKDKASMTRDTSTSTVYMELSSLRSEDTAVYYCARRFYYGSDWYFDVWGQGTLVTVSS VL: DIQLTQSPSFLSASVGDRVSITCKASQDVGTAVAWYQQKPGKAPKLLIYWASTRHTGVPDRFSGSGSGTEFTLTISSLQPEDFADYFCQQYSSYPLTFGQGTKVEIK , its Kd was 0.373

// sample humanized anti-Ang2 antibody 2C8H42 (antibody, V domains shown, Full-length human IgG1) VH: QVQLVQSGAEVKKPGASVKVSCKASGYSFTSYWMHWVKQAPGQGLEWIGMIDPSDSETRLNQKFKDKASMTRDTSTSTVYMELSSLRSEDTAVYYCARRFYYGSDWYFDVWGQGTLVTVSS VL: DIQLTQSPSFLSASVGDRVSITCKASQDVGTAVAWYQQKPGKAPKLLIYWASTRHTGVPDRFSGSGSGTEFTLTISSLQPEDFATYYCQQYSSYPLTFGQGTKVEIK , its Kd was 0.381

// sample humanized anti-Ang2 antibody 4B9H21 (antibody, V domains shown, Full-length human IgG1) VH: QVQLVESGGGLVKPGGSLRLSCAASGFTFSDYYMYWVRQAPGKGLEWVSTISVGGSFTYYPDSVKGRFTISRDNAKNSLYLQMNSLRAEDTAVYYCARDWGLRPWFVYWGQGTLVTVSS VL: DIQMTQSPSSLSASVGDRVTITCKASQDVSTAVAWYQQKPGKAPKLLIYWASTRHTGVPSRFSGSGSGTDFTLTISSLQPEDFATYYCQQHYSTPPTFGQGTKVEIK , its Kd was 0.121

// sample humanized anti-Ang2 antibody 2C8H13 (antibody, V domains shown, Full-length human IgG1) VH: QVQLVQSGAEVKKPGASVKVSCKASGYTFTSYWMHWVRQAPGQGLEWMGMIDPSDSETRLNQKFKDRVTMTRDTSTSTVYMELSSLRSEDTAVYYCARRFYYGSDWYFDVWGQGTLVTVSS VL: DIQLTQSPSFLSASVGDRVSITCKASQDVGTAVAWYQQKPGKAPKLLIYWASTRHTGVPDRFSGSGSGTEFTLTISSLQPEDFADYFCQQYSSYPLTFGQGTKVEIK , its Kd was 0.246

// sample humanized anti-Ang2 antibody 4B9H31 (antibody, V domains shown, Full-length human IgG1) VH: QVQLVESGGGLVKPGGSLRLSCAASGFTFSDYYMYWVRQAPGKGLEWVATISVGGSFTYYPDSVKGRFTISRDNAKNSLYLQMNSLRAEDTAVYYCARDWGLRPWFVYWGQGTLVTVSS VL: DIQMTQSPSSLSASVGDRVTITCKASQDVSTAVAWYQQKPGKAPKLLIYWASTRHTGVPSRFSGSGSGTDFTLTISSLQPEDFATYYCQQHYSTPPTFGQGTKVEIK , its Kd was 0.167
